- STUDY_TARGET: Integrin alpha-4/beta-1 (Homo sapiens, UniProt P05556+P13612)
- Sequence (P05556 whole entry): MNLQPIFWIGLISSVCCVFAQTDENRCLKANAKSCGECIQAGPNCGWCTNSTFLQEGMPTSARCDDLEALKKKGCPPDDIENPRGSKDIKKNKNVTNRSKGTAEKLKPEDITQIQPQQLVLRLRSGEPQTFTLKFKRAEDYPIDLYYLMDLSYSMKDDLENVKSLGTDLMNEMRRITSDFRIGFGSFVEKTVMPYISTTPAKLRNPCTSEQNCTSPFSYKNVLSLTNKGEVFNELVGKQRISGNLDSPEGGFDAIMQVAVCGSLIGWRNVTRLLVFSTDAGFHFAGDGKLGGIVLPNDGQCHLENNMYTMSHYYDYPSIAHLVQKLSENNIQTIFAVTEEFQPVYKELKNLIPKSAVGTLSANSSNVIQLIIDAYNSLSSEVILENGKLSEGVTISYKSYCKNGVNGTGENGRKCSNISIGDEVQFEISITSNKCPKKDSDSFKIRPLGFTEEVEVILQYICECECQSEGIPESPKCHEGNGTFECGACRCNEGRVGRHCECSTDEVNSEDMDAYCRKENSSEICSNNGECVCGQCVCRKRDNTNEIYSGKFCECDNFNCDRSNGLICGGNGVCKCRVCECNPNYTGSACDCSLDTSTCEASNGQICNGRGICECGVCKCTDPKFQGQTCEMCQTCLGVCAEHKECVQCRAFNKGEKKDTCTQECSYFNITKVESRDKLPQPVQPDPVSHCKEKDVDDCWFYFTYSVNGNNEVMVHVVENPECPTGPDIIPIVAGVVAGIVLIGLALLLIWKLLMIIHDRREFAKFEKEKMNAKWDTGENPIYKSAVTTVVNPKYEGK
- Sequence (P13612 whole entry): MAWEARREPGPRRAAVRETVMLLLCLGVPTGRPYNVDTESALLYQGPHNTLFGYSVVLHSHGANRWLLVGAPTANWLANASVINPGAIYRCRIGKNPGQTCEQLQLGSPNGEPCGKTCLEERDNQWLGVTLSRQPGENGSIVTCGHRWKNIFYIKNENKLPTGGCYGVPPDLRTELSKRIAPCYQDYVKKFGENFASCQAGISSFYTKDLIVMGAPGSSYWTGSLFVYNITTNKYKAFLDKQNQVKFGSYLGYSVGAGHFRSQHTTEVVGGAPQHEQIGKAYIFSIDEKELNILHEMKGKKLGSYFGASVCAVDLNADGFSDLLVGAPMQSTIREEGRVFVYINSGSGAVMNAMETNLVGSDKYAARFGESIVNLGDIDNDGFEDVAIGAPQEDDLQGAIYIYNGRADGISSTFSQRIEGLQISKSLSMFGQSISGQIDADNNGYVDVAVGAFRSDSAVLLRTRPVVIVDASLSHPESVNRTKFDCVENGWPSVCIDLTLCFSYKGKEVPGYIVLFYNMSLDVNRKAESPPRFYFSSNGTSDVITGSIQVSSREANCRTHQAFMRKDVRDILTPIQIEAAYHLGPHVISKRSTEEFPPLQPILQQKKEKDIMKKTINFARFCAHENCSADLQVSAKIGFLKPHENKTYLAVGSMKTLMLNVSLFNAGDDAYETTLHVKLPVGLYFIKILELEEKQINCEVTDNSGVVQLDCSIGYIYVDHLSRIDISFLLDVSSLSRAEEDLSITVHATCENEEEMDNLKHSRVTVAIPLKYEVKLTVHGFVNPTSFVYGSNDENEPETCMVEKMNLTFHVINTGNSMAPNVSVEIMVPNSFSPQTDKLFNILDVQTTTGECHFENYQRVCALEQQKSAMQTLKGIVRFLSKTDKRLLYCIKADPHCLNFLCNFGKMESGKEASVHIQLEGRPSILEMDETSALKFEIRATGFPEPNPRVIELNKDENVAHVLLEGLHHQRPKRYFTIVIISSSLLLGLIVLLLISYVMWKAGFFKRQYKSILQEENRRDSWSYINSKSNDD
- EXPERIMENT_SUMMARY: Inhibition of recombinant human VCAM binding to VLA-4 of Ramos cells at 10 uM
- Assay type: cell-based
QUANTITY_MEASURED: inhibition (%)

CO/N=C(\C(=O)N[C@@H](Cc1ccc(C#CCCCC(=O)OC)cc1)C(=O)O)c1csc(N)n1 :: 99
CC1(C(=O)N[C@@H](Cc2ccc(C#CCCCC(=O)O)cc2)C(=O)O)CC1(Cl)Cl (stereo partly drawn) :: 80
CCCCCOc1ccc(C[C@H](NC(=O)[C@@H]2CCC(=O)N2Cc2ccccc2)C(=O)O)cc1 :: 97

* * *

- STUDY_TARGET: Integrin alpha-4/beta-1 (Homo sapiens, UniProt P05556+P13612)
- EXPERIMENT_SUMMARY: Inhibition of CS-1 peptide binding to VLA-4 expressed in Ramos cells
- Assay type: cell-based
QUANTITY_MEASURED: pIC50
// pIC50 here means minus log10 of the molar concentration (mol/L)

## Task Which pIC50 reading was recorded for the compound CCCCCOc1ccc(C[C@H](NC(=O)[C@@H]2CSCN2C(C)=O)C(=O)O)cc1 ?
## Result 5.38

* * *

- STUDY_TARGET: Integrin alpha-4/beta-1 (Homo sapiens, UniProt P05556+P13612)
- EXPERIMENT_SUMMARY: Antagonistic activity against VLA-4 (derived from ramos cells) binding to recombinant human VCAM
- Assay type: cell-based
QUANTITY_MEASURED: IC50 (µM)

Examples from the recorded data:
CCCCCOc1ccc(C[C@H](NC(=O)C2(C)CC2(Cl)Cl)C(=O)O)cc1 (stereo partly specified) :: 0.21
CCCCCOc1ccc(C[C@H](NC(=O)[C@@H]2CSCN2C(C)=O)C(=O)O)cc1 :: 0.112
O=C(O)CCCC#Cc1ccc(C[C@H](NC(=O)[C@@H]2CCC(=O)N2Cc2ccccc2)C(=O)O)cc1 :: 0.02

A. CC1(C(=O)N[C@@H](Cc2ccc(C#CCCCC(=O)O)cc2)C(=O)O)CC1(Cl)Cl (stereo partly specified)
B. CCCCCCc1ccc(C[C@H](NC(=O)Cc2cccc(NC(=N)N)c2)C(=O)O)cc1
C. CC(C)(C)OC(=O)N1CCC[C@H](CC(=O)N[C@@H](Cc2ccc(C#CCCCC(=O)O)cc2)C(=O)O)C1
## Task Order each entry by recorded IC50, climbing from the minimum. Answer with the labels in sequence, matching the requested order.
## Result A, C, B
(A: 0.187 µM, C: 0.64 µM, B: 7 µM)

I. CCCCCOc1ccc(C[C@H](NC(=O)c2c3ccccc3nc3ccccc23)C(=O)O)cc1
II. CCCCCOc1ccc(C[C@H](NC(=O)Cc2cccc(N)c2)C(=O)O)cc1
III. CCCCCOc1ccc(C[C@H](NC(=O)C2CC(=O)N(C)C2c2cccnc2)C(=O)O)cc1 (stereo in doubt; 3)
IV. CCCCCOc1ccc(C[C@H](NC(=O)c2c(C)cc(C)cc2C)C(=O)O)cc1
V. CCCCCOc1ccc(C[C@H](NC(=O)[C@@H]2CCC(=O)N2Cc2ccccc2)C(=O)O)cc1
## Task Rank entries according to their IC50, from the largest number down. Give me the labels in the order the question wants.
## Result II, III, I, IV, V
(II: 4.5 µM, III: 1.7 µM, I: 0.59 µM, IV: 0.245 µM, V: 0.046 µM)

I. CCCCCOc1ccc(C[C@H](NC(=O)c2cccnc2)C(=O)O)cc1
II. CCCCCOc1ccc(C[C@H](NC(=O)C2CC(=O)N(C)C2c2cccnc2)C(=O)O)cc1 (stereo in doubt; 22)
III. CCCCCOc1ccc(C[C@H](NC(=O)/C(=N/OC)c2csc(N)n2)C(=O)O)cc1
## Task Rank by IC50 (largest to smallest). Ranked list of labels, please, in the requested order.
## Result I, II, III
(I: 3.8 µM, II: 0.87 µM, III: 0.06 µM)

P. CO/N=C(\C(=O)N[C@@H](Cc1ccc(C#CCCCC(=O)OC)cc1)C(=O)O)c1csc(N)n1
Q. COC(=O)CCCC#Cc1ccc(C[C@H](NC(=O)c2ccc(S(N)(=O)=O)cc2)C(=O)O)cc1
## Task Which value of IC50 is smaller, the one for P or the one for Q ? // caller expects the label of the chosen entry
## Result P
(P: 0.135 µM, Q: 0.317 µM)

* * *

- STUDY_TARGET: Integrin alpha-4/beta-1 (Homo sapiens, UniProt P05556+P13612)
- EXPERIMENT_SUMMARY: Inhibition of recombinant human VCAM binding to VLA-4 of Ramos cells at 10 uM
- Assay type: cell-based
QUANTITY_MEASURED: inhibition (%)

CCCCCOc1ccc(C[C@H](NC(=O)c2cccnc2)C(=O)O)cc1 :: 87
CCCCCOc1ccc(C[C@H](NC(=O)C2CC(=O)N(C)C2c2cccnc2)C(=O)O)cc1 (stereo in doubt; 22) :: 90
CCCCCOc1ccc(C[C@H](NC(=O)c2c3ccccc3nc3ccccc23)C(=O)O)cc1 :: 92
COC(=O)CCCC#Cc1ccc(C[C@H](NC(=O)c2ccc(S(N)(=O)=O)cc2)C(=O)O)cc1 :: 94
CCCCCOc1ccc(C[C@H](NC(=O)C2CC(=O)N(C)C2c2cccnc2)C(=O)O)cc1 (stereo in doubt; 3) :: 81
